Tested on: OVCAR-3 ovarian
procedureDetails: NCI tumour cell line growth inhibition, 48 h; in the data active = GI50 below about 0.43 µM; inactive = the rest
Where a SMILES comes first, the peptide text is derived from it. [ ]: non-standard residue; d: D form. The star is where a group is joined. ξ: configuration not given here. NMeF = CN[C@@H](Cc1ccccc1)C(=O)O; NMeN = CN[C@@H](CC(N)=O)C(=O)O; NMeV = CN[C@H](C(=O)O)C(C)C; ξNMeV = CNC(C(=O)O)C(C)C; Boc = CC(C)(C)OC(=O)*; ξNMeA = CNC(C)C(=O)O; ξV = CC(C)C(N)C(=O)O
Classes used: YES for active, NO for inactive

| compound | classLabel |
| --- | --- |
| COC(=O)C(C)N(C)C(=O)[C@H](CC(N)=O)N(C)C(=O)[C@@H]1CCCN1C(=O)[C@H](C(C)C)N(C)C(=O)C(C(C)C)N(C)C(=O)[C@H](Cc1ccccc1)N(C)C(=O)C(NC(=O)OC(C)(C)C)C(C)C (some centres undefined) (Boc-[ξV][NMeF][ξNMeV][NMeV]P[NMeN][ξNMeA]-OMe) | NO |
| Clc1ccc(-c2nc(-c3ccccc3)cn3ccnc23)cc1 | NO |
| Cc1ccc(/C(=C/C=C(/C#N)C(N)=O)Sc2ncnn2C)cc1 | NO |
| Cc1cc(-c2ccc(C3C(C#N)=C(N)Oc4c3c(=O)oc3ccccc43)cc2)cnc1F (centres undefined) | NO |
| Oc1cc(Cn2cnc3c(Cl)nc(Cl)nc32)ccc1C12CC3CC(CC(C3)C1)C2 | NO |
| CCN1C2=C(SC(=S)C1=C1SC(C(=O)OC)=C(C(=O)OC)S1)SC(=Nc1ccc(OC)cc1)C2=O | NO |
| COC(=O)[C@]12CC[C@@H](C(=O)/C=C/c3cccnc3)[C@@H]1[C@H]1CC[C@@H]3[C@@]4(C)C/C(=C/c5cccnc5)C(=O)C(C)(C)[C@@H]4CC[C@@]3(C)[C@]1(C)CC2 | YES |
| C=C1C(=O)O[C@H]2[C@H]1CC/C(COC(=O)NCc1c[nH]c3ccc(Br)cc13)=C\CC[C@@]1(C)O[C@@H]21 | NO |
| C/C(=C\C(=N\N=C(N)N)c1ccc(Cl)cc1)c1ccc(Cl)cc1 | NO |
| CS(=O)(=O)OCCn1c2c(c3c(O)cccc31)C(=O)c1ccccc1-2 | NO |
| CC(C)=C[C@@H]1C[C@H](C)[C@H]2CC[C@H](C)c3c(O)c(OC4OCC(O)C(O)C4O)c(C)c1c32 (some centres undefined) | NO |
| COc1ccc2c(c1)C(=O)c1c-2c(=O)n(CCCCCCC(=O)NO)c2ccccc12 | YES |
| O=C(C1CC1)N1CC[C@@H](Cc2n[nH]c(=O)n2-c2ccc(-c3ccc4occc4c3)cc2)C1 | NO |
| N=C(N)c1ccc(-c2ccc(-c3cccs3)o2)cc1 | NO |

The values you see were collected from PubChem BioAssay (NCI).
